Below are pIC50 measurements against LIM domain kinase 1 (Homo sapiens, UniProt P53667) drawn from the literature.
Sequence (P53667 whole entry, the tested form may be a part): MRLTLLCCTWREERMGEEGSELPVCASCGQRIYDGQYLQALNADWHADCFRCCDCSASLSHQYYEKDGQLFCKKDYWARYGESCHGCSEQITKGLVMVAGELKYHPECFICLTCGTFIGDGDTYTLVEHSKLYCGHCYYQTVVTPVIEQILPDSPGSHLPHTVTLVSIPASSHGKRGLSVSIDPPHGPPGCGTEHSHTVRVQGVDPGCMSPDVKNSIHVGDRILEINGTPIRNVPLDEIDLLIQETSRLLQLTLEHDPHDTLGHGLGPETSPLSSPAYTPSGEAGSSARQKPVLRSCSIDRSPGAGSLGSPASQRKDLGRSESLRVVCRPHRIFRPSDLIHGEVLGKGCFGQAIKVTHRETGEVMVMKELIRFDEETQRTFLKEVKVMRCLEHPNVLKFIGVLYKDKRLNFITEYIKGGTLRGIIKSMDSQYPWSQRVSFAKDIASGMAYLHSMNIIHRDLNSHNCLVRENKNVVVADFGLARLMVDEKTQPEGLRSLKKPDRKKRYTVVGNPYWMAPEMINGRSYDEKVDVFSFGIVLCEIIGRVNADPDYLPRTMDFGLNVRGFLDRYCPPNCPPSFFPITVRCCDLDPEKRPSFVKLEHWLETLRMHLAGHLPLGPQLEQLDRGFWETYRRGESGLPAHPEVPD
As a rule, pIC50 stands for the negative log10 of the concentration, concentration in M.

Give the reported value of pIC50 for this record: NC(=O)c1sc2nc(Cc3ccccc3)cc(C(F)(F)F)c2c1N
4.52

Give the reported value of pIC50 for this record: COc1ccc(-c2cc(-c3ccccc3)nc3sc(C(N)=O)c(N)c23)cc1
4.36

Give the reported value of pIC50 for this record: COc1ccc(CNc2ccnc3oc4ccccc4c23)cc1
3.12

Give the reported value of pIC50 for this record: COC(=O)COc1cccc(NC(=O)C2(CN(C)C)CCN(c3ncnc4[nH]cc(C)c34)CC2)c1
7.42

Give the reported value of pIC50 for this record: CNC(=O)Nc1ncc(-c2cc(-c3c(C)cc(OC)cc3C)nc(-c3cnccn3)n2)s1
7.64

Give the reported value of pIC50 for this record: CCCNc1ncc(-c2cc(-c3cc(OC)ccc3Cl)nc(-c3cnccn3)n2)s1
4.90

Give the reported value of pIC50 for this record: NC(=O)c1sc2nc(-c3ccccc3)cc(-c3ccco3)c2c1N
5.70

Give the reported value of pIC50 for this record: COC(=O)c1cccc(NC(=O)C2(CN(C)C)CCN(c3ncnc4[nH]cc(F)c34)CC2)c1
7.70

Give the reported value of pIC50 for this record: COC(=O)c1cccc(NC(=O)C2(N(C)C)CCN(c3ncnc4[nH]cc(C)c34)CC2)c1
7.43

Give the reported value of pIC50 for this record: CCC(CC)Oc1cc(C)c(-c2cc(-c3cnc(NC(=O)NC)s3)nc(-c3cnccn3)n2)c(C)c1
7.18

Give the reported value of pIC50 for this record: Cc1ccc(NC(=O)Nc2ccc(-c3ncnc4[nH]cc(C)c34)cc2F)cn1
7.96

Give the reported value of pIC50 for this record: COC(=O)c1cccc(NC(=O)C2(CN(C)C)CCN(c3ncnc4[nH]c(C)cc34)CC2)c1
7.64

Give the reported value of pIC50 for this record: CCCNc1ncc(-c2cc(-c3c(Cl)cc(OC4CCCC4)cc3Cl)nc(-c3cnccn3)n2)s1
6.60

Give the reported value of pIC50 for this record: COc1cc(C)c(-c2cc(-c3cnc(NC(C)=O)s3)nc(-c3cnccn3)n2)c(C)c1
7.06

Give the reported value of pIC50 for this record: Cc1c[nH]c2ncnc(N3CCC(CN(C)C)(C(=O)Nc4cccc(C(=O)OC(C)C)c4)CC3)c12
7.39

Give the reported value of pIC50 for this record: Nc1ncnc2c1[nH]c1ccccc12
5.40

Give the reported value of pIC50 for this record: NC(=O)c1sc2nc(-c3ccccc3)ccc2c1N
5.52
